// provenance: paper PMC3794927

target.or.test.system: hFFAR1 (Homo sapiens, UniProt O14842)
Construct: expressed in transfected cells
Sequence (O14842 whole entry): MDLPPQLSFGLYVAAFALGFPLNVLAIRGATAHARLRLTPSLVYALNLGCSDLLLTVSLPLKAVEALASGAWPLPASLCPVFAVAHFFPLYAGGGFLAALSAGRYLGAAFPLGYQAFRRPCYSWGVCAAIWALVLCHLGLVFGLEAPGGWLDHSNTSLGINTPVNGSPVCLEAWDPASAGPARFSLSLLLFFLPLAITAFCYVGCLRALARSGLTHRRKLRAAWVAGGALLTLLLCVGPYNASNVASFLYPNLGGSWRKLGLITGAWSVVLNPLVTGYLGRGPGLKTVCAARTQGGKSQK
experiment.notes: Ca2+ mobilization assay (FLIPR) in CHO cells stably expressing hFFAR1
Type: cell-based
conditions: hFFAR1/CHO cells (clone #104)
parameter.measured: agonistic activity, Ca2+ influx

>>> recorded_measurement("CCCCCCCCCCCCCC(=O)O")
"partial activities"
>>> recorded_measurement("CCCCCCCCCCCCCCCC(=O)O")
"partial activities"
